Attribution: the supplement of paper PMC10567573

As shown below, each of these sequences has a reported protein stability index value.
- assay remarks: protein stability index of a GFP-peptide fusion (GPS, HEK-293T) (PSI 1-6); higher = more stable;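 also: 24-mer peptide tiles fused after GFP, lentivirally expressed, FACS-sorted into six equal bins by GFP/DsRed ratio, decoded by Illumina sequencing, PSI is the read-weighted mean bin number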
- condition label: treatment: DMSO; c terminus: a fixed tail appended

- sequence data: "DIVWGKIHGFPWWPARVLDISLGQ [PWWP2B]"
  protein stability index: 2.7
- sequence data: "QSSGKVMYFSSLFPYVVLACFLVR [SLC6A17]"
  protein stability index: 2.6
- sequence data: "CSMSATFTLNFFRSGIQFGSWGSF [CLCN6]"
  protein stability index: 3.01

====

- assay remarks: protein stability index of a GFP-peptide fusion (GPS, HEK-293T) (PSI 1-6); higher = more stable
- condition label: treatment: DMSO; c terminus: a fixed tail appended
Measured protein stability index, listed per entry.

- sequence data: "TFPDLESEFQAALSRKVAELVHFL [MAGEA3]"
  protein stability index: 2.34
- sequence data: "LVDQVTGVSRGVGFIRFDKRIEAE [ELAVL3]"
  protein stability index: 2.97
- sequence data: "INHLLKSPFSVHPKTGRISVPIDL [PRIM1]"
  protein stability index: 2.06
- sequence data: "YQCPDQMARNPAAIDMFIIGATFT [FBXO3]"
  protein stability index: 3.02
- sequence data: "LDKLLQGGIETGSITEMFGEFRTG [RAD51]"
  protein stability index: 3.07
- sequence data: "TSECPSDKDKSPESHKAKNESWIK [C10orf62]"
  protein stability index: 3.58
- sequence data: "AVAGPPAAAEVGGGVGGSSRARSA [ANKRD17]"
  protein stability index: 5.36
- sequence data: "PRAKSKVWKYFGFDTNAEGCILQW [ZBED1]"
  protein stability index: 2.3
- sequence data: "ISENLDYEETGFYEIEIQAEDGGA [PCDHGA10]"
  protein stability index: 4.74
- sequence data: "MVSALRGAPLIRVHSSPVSSPSVS [SPACA3]"
  protein stability index: 2.85
- sequence data: "FEEFLVMMVRQMKEDAKGKSEEEL [TNNC2]"
  protein stability index: 3.48
- sequence data: "DYKLLKPSLAVNLADPYRSLKAPG [JUNB]"
  protein stability index: 3.41

====

- assay remarks: protein stability index of a GFP-peptide fusion (GPS, HEK-293T) (PSI 1-6); higher = more stable
- condition label: treatment: DMSO; c terminus: a fixed tail appended
Class Yes: protein stability index at least 3. Class No: protein stability index below 3.

- sequence data: "PFNKVQSARFWIPGEPNNAGNNEH [CD207]"
  class: "Yes"
- sequence data: "RKLSLKGHNDWVMDVAISNNKKWI [WDR88]"
  class: "No"
- sequence data: "FRLKTINLQSLINNEIPDCYTFSV [MCOLN1]"
  class: "No"
- sequence data: "SVPLDPMERPMSQADLELDYNPPR [CBY2]"
  class: "Yes"
- sequence data: "ERLKQEIERLTREVEATRRALIDR [DDIT3]"
  class: "Yes"
- sequence data: "PWVKELQDSKEMKQLLDSKIGFEI [ZNF449]"
  class: "No"
- sequence data: "GHDKCVSWMCTRSGNMLGRHFFTS [WDFY1]"
  class: "No"
- sequence data: "MGGTQQQFVEGVRMEEIVEGCTGA [CTNNB1]"
  class: "Yes"
- sequence data: "VGLVTNQLSHIKAKIRAKIPGTGA [RTN2]"
  class: "No"
- sequence data: "SATLVGFTVGSVLGQILVSVAGWS [SLC19A2]"
  class: "Yes"
- sequence data: "EGSVACLWWDPIQRLLFSGASDNS [WDFY1]"
  class: "No"
- sequence data: "IKPPPPLVLNSQQSDTLEQREEHE [RAD54B]"
  class: "Yes"
- sequence data: "IYQGEDLPHPKSMLQATAEANNLA [ATL3]"
  class: "Yes"
- sequence data: "ALVETSYVKVLHHMVKISGGPHIS [MAGEA3]"
  class: "No"
- sequence data: "TPFQSVPPTVSQTPVIAATPVPTI [BRD3]"
  class: "Yes"
- sequence data: "RGLPLLKTDFGSCLLQPPSCPNGM [DLC1]"
  class: "No"
- sequence data: "LTFFAFLHCWLNAFAEMLRFGDRM [SOAT1]"
  class: "Yes"
- sequence data: "EYVAIKLEPMKSRAPQLHLEYRFY [CSNK1G3]"
  class: "Yes"
- sequence data: "EMWADQLTSLKDLYKSLKTLSAEL [CEP70]"
  class: "No"
